assay: gradient 5% acetonitrile 3 min, to 50% in 2 min, to 85% in 15 min, held 3 min, 100 µL/min; details: column: Zorbax Extend-C18 2.1 x 50 mm; eluents: water / acetonitrile, 0.1% formic acid
readout.name: RP-LC retention time (s)

- compound: "COc1ccc(-c2cc(N3CCN(C(=O)Nc4ccc5c(c4)OCCO5)CC3)ncn2)cc1"
  measurement.unit: "s"
  RP-LC retention time: 652
- compound: "COC(=O)c1c(C)[nH]c(C(=O)N2CCCC(C(=O)NCc3ccccc3)C2)c1C (stereo not given)"
  measurement.unit: "s"
  RP-LC retention time: 732
- compound: "Cc1oc(-c2[nH]ncc2C(=O)N2CCCC2)cc1S(=O)(=O)NCc1cc(F)ccc1F"
  measurement.unit: "s"
  RP-LC retention time: 700
- compound: "COc1ccc(NC(=O)N2CCN(c3cc(-n4nc(C)cc4C)ncn3)CC2)cc1Cl"
  measurement.unit: "s"
  RP-LC retention time: 852
- compound: "CCOc1ccc(S(=O)(=O)N2CC(F)(F)C[C@H]2CN2CCc3ccccc3C2)cc1"
  measurement.unit: "s"
  RP-LC retention time: 798

###

experiment: gradient 5% acetonitrile 3 min, to 50% in 2 min, to 85% in 15 min, held 3 min, 100 µL/min; settings: column: Zorbax Extend-C18 2.1 x 50 mm; eluents: water / acetonitrile, 0.1% formic acid
readout.name: RP-LC retention time (s)

Recorded RP-LC retention time, per entry:
- compound: "CCn1ccc(C(=O)N2CCc3c(-c4ccc(OC)cc4)cccc3[C@H]2C)n1"
  experimental.result: 966
- compound: "CCC1CN2C=NC(N3CCN(C(=O)Cc4ccccc4)CC3)=CC2=N1 (stereo not given)"
  experimental.result: 615
- compound: "Cc1cc(Nc2ncccc2S(N)(=O)=O)ccc1Cl"
  experimental.result: 908
- compound: "CCn1c(=O)c(N2CCC(C(=O)NCCCN3CCCCC3C)CC2)nc2cccnc21 (stereo not given)"
  experimental.result: 632
- compound: "Cc1ccsc1C(=O)N1C[C@@H]2CCCN3CCC[C@@H]([C@H]23)[C@H]1CCCC(=O)N1CCOCC1"
  experimental.result: 593
- compound: "CCc1cccc(NC(=O)C2CC(=O)N(c3ccc4oc(C)nc4c3)C2)c1 (stereo not given)"
  experimental.result: 785
- compound: "CCN1C(=O)c2cccnc2Sc2cc(NC(=O)c3ccc(OC)c(F)c3)ccc21"
  experimental.result: 836
- compound: "O=C(Cn1nc2c3c4c(sc3ncn2c1=O)CCCC4)N1CCc2ccccc2C1"
  experimental.result: 1140
- compound: "O=C1CC(c2noc(Cc3ccc(F)cc3)n2)CN1c1ccc(F)cc1 (stereo not given)"
  experimental.result: 933
- compound: "COc1cccc2sc(NC(=O)c3coc4ccccc4c3=O)nc12"
  experimental.result: 921

1: O=C(c1csc(S(=O)(=O)N2CCC(C(=O)N3CCCCC3)CC2)c1)N1CCOCC1
2: COc1ccc(OC)c(Nc2nc(N(C)C)nc3c2cnn3-c2ccccc2)c1
INPUT: Decide: 1 or 2 , by lowest recorded RP-LC retention time. State your choice using its label.
OUTPUT: 1

a: CN1C(=O)C(C)(C)c2cc(S(=O)(=O)N(C)CC(=O)N3CCN(c4ccccn4)CC3)ccc21
b: Cc1cccc(NS(=O)(=O)c2ccc(-c3c(C)noc3C)cc2)c1
INPUT: Decide: a or b , by lowest recorded RP-LC retention time. State your choice using its label.
OUTPUT: a
